# Test system: HS 578T breast
# assay explanation: NCI-60 one-dose screen, 48 h (100 = growth as untreated, 0 = no growth, -100 = all killed)
# assay context: 10 µM
The panel holds about 83,000 compounds, 20% with a hit somewhere; the sample as a whole holds those more often.
measurement name: growth (%)
Kindly answer with a numeric value in %, unit omitted.

These solved cases illustrate the format of a correct answer.
compound: COc1ccccc1N1CCN(C(=S)Nc2ccccc2)CC1
growth [%]: 104
//
compound: CCOC(=O)C(CCC(C)C)C(=O)OCC
growth [%]: 115
//
compound: O=C(CCl)N1CCN(C/C=C/c2ccccc2)CC1
growth [%]: 100
//
compound: COS(=O)(=O)c1ccc(Br)cc1
growth [%]: 114
//
compound: Oc1ccccc1O
growth [%]: 112
//
compound: S=c1sc2ccccc2n1CN1CCCCC1
growth [%]: 100
//
compound: O=C1C=CC(=O)N1c1ccc(I)cc1Cl
growth [%]: 109
//
compound: O=C(Cc1ccc(OCc2ccccc2)cc1)NCc1ccc2c(c1)OCO2
growth [%]: 69.8

Provide the documented growth with HS 578T breast as the system for CC1(C(=O)O)NC(C(=O)O)Cc2c1[nH]c1ccccc21 (configuration not stated)
109

Under HS 578T breast: growth value of CCNc1nc2c(cnn2C)c(=O)[nH]1 ?
92.5

Request: growth, test system HS 578T breast, entry COc1cc2nc3cc([N+](=O)[O-])ccc3c(Cl)c2cc1OC
112

Field: growth (HS 578T breast). Entry: O=C(O)[C@@H]1[C@H]2C[C@H]3c4[nH]c5ccccc5c4CCN3C[C@@H]2CC[C@@H]1O
102

So what growth did CCOC(=O)C/C(C)=N\O get with HS 578T breast?
101

Tell me reported growth for COc1ccc(Oc2c(I)cc(CC(NC(C)=O)C(=O)O)cc2I)cc1 (configuration not stated) , tested with HS 578T breast.
95.7

For the record C=CCNc1ccccc1 , what value of growth is listed for HS 578T breast?
110

Recorded growth for COc1cc2cc(OC(C)=O)c3cc4c(cc3c2c(OC)c1OC)OCO4 with HS 578T breast, please?
91.4

Give recorded growth with HS 578T breast for the following compound: Cc1ccc(Cl)cc1NC(=O)N(C)CCO
236

---

# System: LOX IMVI melanoma
# assay explanation: NCI-60 one-dose screen, 48 h (100 = growth as untreated, 0 = no growth, -100 = all killed)
# assay context: 10 µM
This is part of a sample that, as a whole, favours compounds with a hit. Of some 83,000 tested, about 20% had one in any assay.
measurement name: growth (%)
Just the number please, in %, no unit attached.

Examples from the recorded data:
compound: CCCCCCCCOC(=O)c1ccccn1
measurement name: growth
meas value: 91.7

compound: Nc1ccc(C(=O)c2ccc(N)c(Br)c2)cc1Br
measurement name: growth
meas value: 12.9

compound: COc1ccc(/C(C#N)=C2C=C/C(=N/O)c3ccccc3\2)cc1
measurement name: growth
meas value: 9.34

Give LOX IMVI melanoma growth for Cc1cc2nc(CC(=O)c3cccc([N+](=O)[O-])c3)c(=O)[nH]c2cc1C
72.8

Find the measured growth: item Oc1ccc2c(c1)OCC1(O)Cc3cc(O)c(O)cc3C21 (centres undefined) , target or system LOX IMVI melanoma.
98.2

---

# Tested on: U251 CNS
# assay explanation: NCI-60 one-dose screen, 48 h (100 = growth as untreated, 0 = no growth, -100 = all killed)
# assay context: 10 µM
Compounds without any hit were thinned out: in the full panel of roughly 83,000, 20% have a hit.
Some molecules, each annotated with its measured growth.
Your answer should be a plain number; it is taken to be in %.

Look up growth for this molecule: CCCCCCCO
97.8

---

# System: SR leukemia
# assay explanation: NCI-60 one-dose screen, 48 h
# assay context: 10 µM
# Method: Growth inhibition of the SR human tumor cell line is measured as a screen for anti-cancer activity. Cells are grown in 96 well plates and exposed to the test compound for 48 hours. Compounds are tested at a single concentration, which is 10^-5 M for most compounds. The reported endpoint is percent growth (GI% or GIPRCNT), where numbers from 0 - 100% represent growth inhibition, and numbers from -100% - 0 represent cell death. For example, a value of 40 represents 60% growth inhibition. […]
The panel holds about 83,000 compounds, 20% with a hit somewhere; the sample as a whole holds those more often. Calls of active or inactive are those of the source. How the source made its calls: active means growth percent below 10; inactive means the rest.
Respond using exactly one of the listed classes: active, inactive

Solved cases (3 shown):
compound: CCCCC(CC)COC(C)=O (stereo unspecified)
qualitative label: inactive

compound: O=C(O)C(c1ccccc1)C(O)c1ccccc1 (stereo unspecified)
qualitative label: inactive

compound: CCOc1ccc(I)cc1
qualitative label: inactive

Hi team, can someone confirm the assay call for COC(=O)Nc1cccc(Cl)c1OC ?
inactive

Record lookup: outcome of this test for COc1cc(C(=O)N/N=C/c2cccc([N+](=O)[O-])c2)cc(OC)c1OC ?
inactive

Could you kindly confirm the outcome this assay logged for N#CCCN(CCCN1CCOCC1)CN1C(=O)c2ccccc2C1=O ?
inactive

---

# Tested on: OVCAR-8 ovarian
# assay explanation: NCI-60 one-dose screen, 48 h (100 = growth as untreated, 0 = no growth, -100 = all killed)
# assay context: 10 µM
The panel holds about 83,000 compounds, 20% with a hit somewhere; the sample as a whole holds those more often.
growth: recorded values
Provide only the numeric value, understood in %.

compound: CCN(CC)c1ccc2nc3ccc(=[N+](CC)CC)cc-3oc2c1
growth (%): -9.58

compound: O=C1C=C(Nc2ccc([N+](=O)[O-])cc2)c2ccccc2C1=O
growth (%): 35.1

# get_value(readout='growth', item= Oc1ccccc1O )
86.3

Name the recorded growth for CC(=O)Cc1cc(-c2cc(CC(C)=O)[nH]n2)n[nH]1 .
98.5

Reported growth for O=C(O)/C=C/C(=O)NCc1ccccc1 : what is it?
108

State the recorded growth for this entry: CC1(C)Nc2cccc3c(N=Nc4ccc(N=Nc5ccccc5)c5ccccc45)ccc(c23)N1
109

growth lookup needed for CCCCC1C(=O)N(c2ccccc2)N(c2ccccc2)C1=O , thanks.
103

Would you mind telling me what growth value was observed for CC(=O)Oc1ccc(Br)cc1C(=O)O ?
104

Which value of growth has been reported for COC(=O)C(O)c1ccccc1 (stereo not drawn) in the records?
108

Can you share its growth? I mean this compound: CC1(C(N)=O)CCC(C(=O)O)C1(C)C (stereo not drawn)
105

Look up growth: Nc1nc(N)c(N=Nc2ccc(C(=O)O)cc2)c(N)n1
104

Give the measured growth of O=C(c1ccc(Cl)cc1)c1ccccc1Cl .
89.6

Need growth, item COc1cc2nn(-c3ccccc3N)nc2cc1OC
97.1

---

Recorded measurements of growth, one per entry
# Tested on: OVCAR-5 ovarian
# assay explanation: NCI-60 one-dose screen, 48 h (100 = growth as untreated, 0 = no growth, -100 = all killed)
# assay context: 10 µM
This is part of a sample that, as a whole, favours compounds with a hit. Of some 83,000 tested, about 20% had one in any assay.
Write the number in % without appending the unit.

molecule: COc1ccc(/C(C#N)=C2C=C/C(=N/O)c3ccccc3\2)cc1
growth [%]: 27.3

Value lookup for growth; key = Cc1ccc(C(=O)c2ccccc2)c(C)c1
95.3

Query: growth; subject: CN1C(=O)CN2CCc3ccccc3C2c2cc(Cl)ccc21 (stereo not given)
83.9

Looking for the measured growth of O=[N+]([O-])c1ccc(CO)cc1 , can you help?
105

Record request: growth value, item CCOc1ccccc1/C=N/Nc1nc2ccccc2o1
97.3

---

Listing of recorded growth by entry.
# Tested on: T-47D breast
# assay explanation: NCI-60 one-dose screen, 48 h (100 = growth as untreated, 0 = no growth, -100 = all killed)
# assay context: 10 µM
This is part of a sample that, as a whole, favours compounds with a hit. Of some 83,000 tested, about 20% had one in any assay.
Response body: numeric value in %, unit text excluded.

compound: Cc1cccc(CO)c1
growth (%): 98.8

Find the recorded growth belonging to C=CCNc1ccccc1 and report it.
103

Query (compound): COC(=O)/C=C\C(=O)OC ; field requested: growth
113

For the compound shown here, C=CCOC(=O)C(=O)OCC=C , give the reported growth.
93.9

# input compound: Oc1ccc(O)cc1 ; wanted: its growth
114

Please report the recorded growth for Cc1cc(C)cc(NCCC#N)c1 .
107

Fill in: growth of COc1cc2c3c(n(C)c(=O)c2cc1OC)-c1cc2c(cc1C3=O)OCO2 is ___
28.2

What measured growth goes with CCCC(=O)Nc1ccc2c(c1)CN1C(=O)c3ccccc3C1=N2 ?
101

---

# Test system: MDA-MB-231 breast
# assay explanation: NCI-60 one-dose screen, 48 h (100 = growth as untreated, 0 = no growth, -100 = all killed)
# assay context: 10 µM
# Experimental: Cells are grown in 96 well plates and exposed to the test compound for 48 hours. Compounds are tested at a single concentration, which is 10^-5 M for most compounds. The reported endpoint is percent growth (GI% or GIPRCNT), where numbers from 0 - 100% represent growth inhibition, and numbers from -100% - 0 represent cell death. For example, a value of 40 represents 60% growth inhibition. A value of 0 means no net growth occurred over the course of the experiment. […]
This is part of a sample that, as a whole, favours compounds with a hit. Of some 83,000 tested, about 20% had one in any assay.
measurement name: growth (%)
# output: bare number, implied unit %

compound: O=C(/C(=N/O)c1ccccc1)c1ccccc1
measured target: MDA-MB-231 breast
growth (%): 98.5
//
compound: COc1cc(/C=C(\C#N)C(=O)c2ccccc2)ccc1OCc1ccccc1
measured target: MDA-MB-231 breast
growth (%): 94.6

// growth lookup, key: Cc1ccc(C(=O)N/N=C/c2ccc3c(c2)OCO3)cc1
90.5

Recorded growth for Cc1cc(N)c(S(=O)(=O)O)c(N)c1 , please?
103

Param item = CC(=O)OC(OC(C)=O)C1CCCO1 (stereo unspecified) ; retrieve measured growth.
91.8

Item Cc1cccc(CO)c1 has what recorded growth?
104

Recorded growth of O=C(NC1CCCCC1)OCc1c(COC(=O)NC2CCCCC2)c(-c2ccc(Cl)c(Cl)c2)n2c1CCC2 , please.
42.3
